Reference for the values: the nanobody polyreactivity screen of Harvey et al. (2022)

- Experiment: yeast display, Sf9 membrane polyspecificity reagent, FACS + sequencing; frameworks hold sequencing errors
Endpoint Name: polyreactivity (PSR sort gate)

Consider the reported polyreactivity (PSR sort gate) for these sequences:
QVQLVESGGGLVQAGGSLRLSCAASGRTFGGYAMGWYRQAPGKERELVAAITWRGGRTFYADSVKGRFTISRDNAKNTVYLQMNSLKPEDTAVYYCNVVKYGPRYDYWGQGTQVTVSS :: high polyreactivity
QLQLVESGGGLVQAGGRLRLSCAASGLNFYDNMGWYRQPPGKEREFVAAISSSGGSTSYADSVKGRFTISRDNAKNTVYLQMNSLKPEDRAVYYCAADSYPAYLGFVGFDYWGQGTQVTVSS :: low polyreactivity
QVQLVESAGGLVQAGGSLRLSCAASGRTFDAYAMGWYRQAPGKERELVATITSGGGTYYADSVKGRFTISRDNAKNTVYLLMNSLTPEDTAVYYCNKRYVVSRKYDYWGQGTQVTVSS :: low polyreactivity
QVQLVESGGGLVQAGGSLRLSCAASGITFPGTVMGWYRQAPGKERELVAAISTSGGSTYYADSVKGRFTISRDNAKNTVYLQMNSLKPEDTAVYYCARQYIRSSYGYWGQGTQVTVSS :: low polyreactivity

Quick request: polyreactivity (PSR sort gate) for each listed item, please.
1. QVQLVESGGGLVQAGGSLRLSCAASGRIFRAIAMGLYRQAPGKERELVAAISFSGGGTYYADSVKGRFTISRDNAKYTVYLQMNSLKPEDTAVYYCAADQFWGGEEYDYWGQGTQVTVSS
2. QVQLVESGGGLVQAGGSLRISCAASGFTFYNYAMGWYRQAPGKRELVAAITSGGRTNYADSVKGRFTISRDNAKNTVYLQMNSRIPEDTAVYYCNAYPRWKFRSQVYDGWYGRFDYWGQGTQVTVSS
3. QVQLVESGGGLVQAGGSLRLSCAASGRTFEPNAMGWYRQAPGKEREFVAAISWDGGDTYYADSVKGRFTISRDNAKNTVYLQMNSLKPEDTAVYYCAKSTLYSVEYDYWGQGTQVTVSS

Marked response:
1. low polyreactivity
2. high polyreactivity
3. low polyreactivity
